# Protocol Text: xn = mol fraction of the nth substance listed, in the solute-free solvent
# Test Context: 318.15 K; x2 = 0.3
Endpoint Name: solubility (g/100 g solution)

Examples with their reported solubility (g/100 g solution) follow.
INSERT INTO assay_data (compound, endpoint_result) VALUES
  ('Cc1c(Br)c(=O)n(C2CCCC2)c2nc(Cl)ncc12 + CC1=CC(=O)CC(C)(C)C1 + CC(C)O', 2.49),
  ('CCOc1ccccc1C(N)=O + CCO + CC#N', 17.7),
  ('CCOc1ccccc1C(N)=O + CC#N + CC(C)O', 14.1);

[1] Cc1c(Br)c(=O)n(C2CCCC2)c2nc(Cl)ncc12 + CCOC(C)=O + CCO
[2] CCOc1ccccc1C(N)=O + CO + CC#N
[3] Cc1c(Br)c(=O)n(C2CCCC2)c2nc(Cl)ncc12 + C1CCOC1 + CCO
**Q:** Sort low-to-high on solubility (g/100 g solution), please. The reply should contain the labels ordered as requested.
**A:** 1, 3, 2
(1: 1.02, 3: 5.66, 2: 19.7)

These measurements were taken from the CheMixHub drug solubility set.
